test system: WPMY1-TP53BP1-CLTA; test: phenotypically active (imaging signature differs from DMSO and reproducible) at any of 0.3-9 uM (binary (1 = active, 0 = inactive)); higher = active; details: treatment time: 24 h
Counter-ions that a name gives are not always drawn.
Outcomes: active, inactive

[
  {
    "compound": "CCC(=C(CC)c1ccc(O)cc1)c1ccc(O)cc1 (stereo in doubt) [diethylstilbestrol]",
    "measured.on": "WPMY1-TP53BP1-CLTA",
    "category": "inactive"
  },
  {
    "compound": "CC(C)N(CCC(=O)c1ccc2ccccc2c1)Cc1ccccc1",
    "measured.on": "WPMY1-TP53BP1-CLTA",
    "category": "inactive"
  },
  {
    "compound": "O=C(O)c1cc(/N=N/c2ccc(O)c(C(=O)O)c2)ccc1O [olsalazine]",
    "measured.on": "WPMY1-TP53BP1-CLTA",
    "category": "inactive"
  },
  {
    "compound": "N=C(N)NN=Cc1c(Cl)cccc1Cl [guanabenz]",
    "measured.on": "WPMY1-TP53BP1-CLTA",
    "category": "inactive"
  },
  {
    "compound": "Nc1ncnc2c1c(COc1cccc(Cl)c1)nn2C1CCOCC1",
    "measured.on": "WPMY1-TP53BP1-CLTA",
    "category": "inactive"
  },
  {
    "compound": "Cn1cc(-c2[nH]c3cc(NC(=O)[C@H](N)C4CCCCC4)cc4c3c2C=NNC4=O)cn1",
    "measured.on": "WPMY1-TP53BP1-CLTA",
    "category": "active"
  },
  {
    "compound": "CCN1CCN(c2cc(-c3ccc(F)cc3)c3c(n2)CCCCCC3)CC1 [blonanserin]",
    "measured.on": "WPMY1-TP53BP1-CLTA",
    "category": "active"
  },
  {
    "compound": "CN(C(=O)CCCOc1ccc2[nH]c(=O)ccc2c1)C1CCCCC1 [Cilostamide]",
    "measured.on": "WPMY1-TP53BP1-CLTA",
    "category": "inactive"
  },
  {
    "compound": "O=S(=O)(c1cccc2cnccc12)N1CCCNCC1 [fasudil]",
    "measured.on": "WPMY1-TP53BP1-CLTA",
    "category": "inactive"
  },
  {
    "compound": "CCOC(=O)Nc1cc(-c2ccc(C)c(NS(C)(=O)=O)c2)nn2c(C)nnc12 [Bromosporine]",
    "measured.on": "WPMY1-TP53BP1-CLTA",
    "category": "active"
  },
  {
    "compound": "C=CC(=O)Nc1cccc(Nc2nc(Nc3ccc(OCCOC)cc3)ncc2F)c1",
    "measured.on": "WPMY1-TP53BP1-CLTA",
    "category": "active"
  },
  {
    "compound": "O=C(O)Cc1cccc(OCCCN(Cc2cccc(C(F)(F)F)c2Cl)CC(c2ccccc2)c2ccccc2)c1 [GW 3965 hydrochloride]",
    "measured.on": "WPMY1-TP53BP1-CLTA",
    "category": "inactive"
  },
  {
    "compound": "Cc1ccc(NC(=O)c2cccc(C(C)(C)C#N)c2)cc1Nc1ccc2ncn(C)c(=O)c2c1",
    "measured.on": "WPMY1-TP53BP1-CLTA",
    "category": "active"
  },
  {
    "compound": "Nc1ncnc2c1nc(Br)n2[C@@H]1O[C@@H]2COP(=O)(O)O[C@H]2[C@H]1O [8-Bromo-cAMP, sodium salt]",
    "measured.on": "WPMY1-TP53BP1-CLTA",
    "category": "inactive"
  },
  {
    "compound": "Cc1cc(C(=O)Nc2cccc(C(=O)Nc3cccc(C(F)(F)F)c3)c2)on1",
    "measured.on": "WPMY1-TP53BP1-CLTA",
    "category": "inactive"
  },
  {
    "compound": "COc1cc2c(cc1OC)C(=O)C(CC1CCN(Cc3ccccc3)CC1)C2 (centres undefined) [donepezil]",
    "measured.on": "WPMY1-TP53BP1-CLTA",
    "category": "inactive"
  },
  {
    "compound": "Clc1ccc2nsnc2c1NC1=NCCN1 [tizanidine]",
    "measured.on": "WPMY1-TP53BP1-CLTA",
    "category": "inactive"
  },
  {
    "compound": "COCC(=O)O[C@]1(CCN(C)CCCc2nc3ccccc3[nH]2)CCc2cc(F)ccc2[C@@H]1C(C)C [mibefradil]",
    "measured.on": "WPMY1-TP53BP1-CLTA",
    "category": "active"
  },
  {
    "compound": "O=C(CCCCCCC(=O)Nc1ccccc1)NO",
    "measured.on": "WPMY1-TP53BP1-CLTA",
    "category": "active"
  }
]

Entry source: the supplement of paper PMC7411054
